# reported remaining at 0.5 h, 1 µM; entries follow
assay: Drug recovery in rat liver microsomes at 1 uM measured after 30 mins by LC-MS/MS analysis; format: ADME, microsome; conditions: liver microsomes, read-out: Drug recovery
ATTRIBUTE_MEASURED: remaining at 0.5 h, 1 µM

| COMPOUND | ATTRIBUTE_MEASURED | TEST_RESULT |
| --- | --- | --- |
| CC(c1ccc2ncc(-c3cnn(C)c3)cc2c1)n1nnc2ncc(-c3cnn(CCO)c3)nc21 (stereo unspecified) | remaining at 0.5 h, 1 µM | 104% |
| CNC(=O)c1ccc(-c2cnc3nnn(C(C)c4cc5cc(-c6cnn(C)c6)cnc5cc4F)c3n2)cc1F (stereo unspecified) | remaining at 0.5 h, 1 µM | 111% |
| CC(c1cc2cc(-c3cnn(C)c3)cnc2cc1F)n1nnc2ncc(-c3cnn(C)c3)nc21 (stereo unspecified) | remaining at 0.5 h, 1 µM | 103% |
| CC(c1c(F)cc2ncc(-c3cnn(C)c3)cc2c1F)n1nnc2ncc(-c3ccncc3)nc21 (stereo unspecified) | remaining at 0.5 h, 1 µM | 98% |
| CC(c1ccc2ncc(-c3ccc(F)cc3)cc2c1)n1nnc2ncc(-c3ccncc3)nc21 (stereo unspecified) | remaining at 0.5 h, 1 µM | 91% |
| CC(c1ccc2ncc(-c3cnn(C)c3)cc2c1)n1nnc2ncc(-c3ccncc3)nc21 (stereo unspecified) | remaining at 0.5 h, 1 µM | 94% |
| CC(c1cc2cc(-c3cnn(C)c3)cnc2cc1F)n1nnc2ncc(-c3ccc(C(N)=O)c(F)c3)nc21 (stereo unspecified) | remaining at 0.5 h, 1 µM | 115% |
| CC(c1ccc2ncc(-c3cnn(C)c3)cc2c1)n1nnc2ncc(-c3cnn(C)c3)nc21 (stereo unspecified) | remaining at 0.5 h, 1 µM | 115% |
| C[C@@H](c1cc2cccnc2cc1F)n1cnc2ncc(-c3cnn(C)c3)nc21 | remaining at 0.5 h, 1 µM | 79% |
| CC(c1c(F)cc2ncc(-c3cnn(C)c3)cc2c1F)n1nnc2ncc(-c3cnn(C)c3)nc21 (stereo unspecified) | remaining at 0.5 h, 1 µM | 94% |
| CC(c1ccc2ncc(-c3ccc(F)cc3)cc2c1)n1nnc2ncc(-c3cnn(C)c3)nc21 (stereo unspecified) | remaining at 0.5 h, 1 µM | 97% |

* * *

# reported remaining at 0.5 h, 1 µM; entries follow
test: Drug recovery in monkey liver microsomes at 1 uM measured after 30 mins by LC-MS/MS analysis
ATTRIBUTE_MEASURED: remaining at 0.5 h, 1 µM (%)

| COMPOUND | ATTRIBUTE_MEASURED | UNIT_SPEC | TEST_RESULT |
| --- | --- | --- | --- |
| CC(c1c(F)cc2ncc(-c3cnn(C)c3)cc2c1F)n1nnc2ncc(-c3ccncc3)nc21 (stereo not drawn) | remaining at 0.5 h, 1 µM | % | 99 |
| CNC(=O)c1ccc(-c2cnc3nnn(C(C)c4ccc5ncc(-c6ccc(F)cc6)cc5c4)c3n2)cc1F (stereo not drawn) | remaining at 0.5 h, 1 µM | % | 93 |
| CNC(=O)c1ccc(-c2cnc3nnn(C(C)c4ccc5ncc(-c6cnn(C)c6)cc5c4)c3n2)cc1F (stereo not drawn) | remaining at 0.5 h, 1 µM | % | 97 |

* * *

# reported pIC50; entries follow
system: NCI-H1993; assay: Growth inhibition of human NCI-H1993 cells after 72 hrs by CCK-8 assay; type: functional, cell-based; settings: Homo sapiens, NCI-H1993, 72 h
pIC50: −log10 of the molar value.

| MOLECULE | TARGET_OR_SYSTEM | pIC50 |
| --- | --- | --- |
| CC(c1ccc2ncc(-c3cnn(C)c3)cc2c1)n1nnc2ncc(-c3cnn(CCO)c3)nc21 (centres undefined) | NCI-H1993 | 9.70 |
| CC(c1cc2cc(-c3ccc(F)cc3)cnc2cc1F)n1nnc2ncc(-c3ccncc3)nc21 (centres undefined) | NCI-H1993 | 8.44 |
| CC(c1cc2cc(-c3cnn(C)c3)cnc2cc1F)n1nnc2ncc(-c3ccncc3)nc21 (centres undefined) | NCI-H1993 | 8.49 |
| CC(c1cc2cc(-c3cnn(C)c3)cnc2cc1F)n1nnc2ncc(-c3ccc(C(N)=O)c(F)c3)nc21 (centres undefined) | NCI-H1993 | 9.05 |
